Data credit: patent US20210179715A1

targetOrSystem: hu.20A12.IA.QNV.H12(V3-23).L2(K1-5)
testProtocol: BIAcore; 37 C
experimentalEndpoint: pKd
Reminder that pKd means the negative base-10 logarithm of the concentration expressed in mol/L.

# pKd lookup, item Ly6G6D (Fc fusion) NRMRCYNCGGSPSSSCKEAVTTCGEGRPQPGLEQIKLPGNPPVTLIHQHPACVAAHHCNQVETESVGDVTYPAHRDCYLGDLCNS
10.47
